target: HCMV polymerase (Human cytomegalovirus, UniProt P08546); construct: made in house; host or cells: recombinant baculovirus-infected SF-9 cells; assay: HCMV polymerase assay (scintillation proximity assay); format: biochemical; details: Table 9; read-out: CMV pol Assay- IC50
Sequence (P08546 whole entry): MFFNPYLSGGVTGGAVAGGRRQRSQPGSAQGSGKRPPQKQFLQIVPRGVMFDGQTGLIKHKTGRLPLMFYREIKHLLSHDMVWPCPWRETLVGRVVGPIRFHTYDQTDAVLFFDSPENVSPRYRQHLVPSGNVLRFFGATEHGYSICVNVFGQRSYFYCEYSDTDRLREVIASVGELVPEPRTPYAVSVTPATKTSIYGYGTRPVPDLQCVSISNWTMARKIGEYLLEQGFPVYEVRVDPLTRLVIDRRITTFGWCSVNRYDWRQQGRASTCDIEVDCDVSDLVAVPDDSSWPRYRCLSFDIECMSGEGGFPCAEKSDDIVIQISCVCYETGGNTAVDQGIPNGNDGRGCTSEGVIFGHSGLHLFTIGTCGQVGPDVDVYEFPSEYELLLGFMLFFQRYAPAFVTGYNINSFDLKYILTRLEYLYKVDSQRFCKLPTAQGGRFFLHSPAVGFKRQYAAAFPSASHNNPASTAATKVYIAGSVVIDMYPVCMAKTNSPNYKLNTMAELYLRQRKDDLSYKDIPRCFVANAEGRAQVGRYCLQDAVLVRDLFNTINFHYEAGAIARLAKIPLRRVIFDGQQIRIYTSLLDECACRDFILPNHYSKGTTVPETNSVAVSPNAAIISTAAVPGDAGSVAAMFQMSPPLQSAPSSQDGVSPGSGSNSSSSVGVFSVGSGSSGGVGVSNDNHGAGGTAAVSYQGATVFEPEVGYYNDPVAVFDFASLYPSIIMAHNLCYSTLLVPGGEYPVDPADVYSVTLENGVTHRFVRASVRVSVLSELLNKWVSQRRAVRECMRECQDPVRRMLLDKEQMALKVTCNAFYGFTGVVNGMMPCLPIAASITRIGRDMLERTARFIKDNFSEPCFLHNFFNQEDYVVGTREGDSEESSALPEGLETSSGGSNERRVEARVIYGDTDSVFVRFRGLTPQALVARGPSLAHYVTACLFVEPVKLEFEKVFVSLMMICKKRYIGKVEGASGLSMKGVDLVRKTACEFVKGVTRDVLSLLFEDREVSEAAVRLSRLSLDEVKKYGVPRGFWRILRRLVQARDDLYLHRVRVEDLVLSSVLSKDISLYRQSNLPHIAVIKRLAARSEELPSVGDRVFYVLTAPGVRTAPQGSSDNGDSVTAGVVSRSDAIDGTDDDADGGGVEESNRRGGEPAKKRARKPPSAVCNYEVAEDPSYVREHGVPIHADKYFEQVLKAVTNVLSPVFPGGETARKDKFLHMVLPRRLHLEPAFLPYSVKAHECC
measurement_type: IC50 (µM)

- O=C(NCC1CCCCC1)c1ccc2cccnc2c1O: 24.2
- CC1CCC(NC(=O)c2ccc3cccnc3c2O)CC1 (stereo not drawn): 23.3
- O=C(NCc1cc(Cl)ccc1Cl)c1ccc2cccnc2c1O: 17
- O=C(NCCc1ccc(Cl)cc1Cl)c1ccc2cccnc2c1O: 9
- O=C(NCCc1ccc(Cl)cc1)c1ccc2cccnc2c1O: 6.7
- O=C(NCCSc1cc(C(F)(F)F)nc2ccccc12)c1ccc2cccnc2c1O: 12.6
- O=C(NCc1cccc(Cl)c1Cl)c1ccc2cccnc2c1O: 14.6
- C[C@H](NC(=O)c1ccc2cccnc2c1O)c1cccc2ccccc12: 3
- O=C(NCC(c1ccccc1)c1ccccc1)c1ccc2cccnc2c1O: 0.9
- O=C(NC1C2CC3CC(C2)CC1C3)c1ccc2cccnc2c1O (stereo not drawn): 24.3
- O=C(NCc1cccc2ccccc12)c1ccc2cccnc2c1O: 3.7
- CC(NC(=O)c1ccc2cccnc2c1O)c1ccccc1 (stereo not drawn): 22.2
- COC(=O)[C@H](Cc1ccc([N+](=O)[O-])cc1)NC(=O)c1ccc2cccnc2c1O: 10.8
- O=C(NCc1ccccc1Cl)c1ccc2cccnc2c1O: 19.7
- C[C@@H](NC(=O)c1ccc2cccnc2c1O)c1ccc(Br)cc1: 4.6
- O=C(NC1CCCCCCC1)c1ccc2cccnc2c1O: 7.6
- CC(CNC(=O)c1ccc2cccnc2c1O)c1ccccc1 (stereo not drawn): 14.8
- O=C(NCCC1=CCCCC1)c1ccc2cccnc2c1O: 21.1
- O=C(NCCSCc1c(Cl)cccc1Cl)c1ccc2cccnc2c1O: 8.4
- O=C(NCc1c(F)cccc1F)c1ccc2cccnc2c1O: 7.1
- O=C(NCCc1c[nH]c2ccccc12)c1ccc2cccnc2c1O: 11.1
- O=C(N[C@@H]1CC2CCC1C2)c1ccc2cccnc2c1O (stereo partly drawn): 19.2
- O=C(NCc1ccc(Cl)cc1)c1ccc2cccnc2c1O [drawing 169]: 8.1
- O=C(NCCSCc1c(F)cccc1Cl)c1ccc2cccnc2c1O: 9.6

====

Recorded measurements of inhibition at 25 µM, one per entry
molecular target: HCMV polymerase (Human cytomegalovirus, UniProt P08546); construct: made in house; host or cells: recombinant baculovirus-infected SF-9 cells; test: HCMV polymerase assay (scintillation proximity assay); assay type: biochemical; details: Table 14; 25 uM
measurement_type: inhibition at 25 µM (%)

- O=C(N[C@H]1CC[C@H](O)CC1)c1ccc2cccnc2c1O: 21
- O=C(NCCc1ccc(F)cc1)c1ccc2cccnc2c1O: 42
- O=C(NCCc1ccccc1F)c1ccc2cccnc2c1O: 39
- O=C(N[C@H](CO)Cc1ccccc1)c1ccc2cccnc2c1O: 93
- O=C(NC(CO)c1ccccc1)c1ccc2cccnc2c1O (centres unmarked): 39

====

molecular target: CMV polymerase (Human cytomegalovirus, UniProt P08546); construct: made in house; host or cells: recombinant baculovirus-infected SF-9 cells; test: modified version of the HCMV polymerase assay (100% DMSO dilution, DTT, different enzyme lot); assay type: biochemical; conditions: Concentration 200 μM; Table 6
Sequence (P08546 whole entry): as above
measurement_type: inhibition at 200 µM (%)

• Cc1ccc2c(Cl)cc(S(=O)(=O)NCc3ccccn3)c(O)c2n1 = 43
• Cc1ccc2c(Cl)cc(S(=O)(=O)NCCc3ccc(NS(=O)(=O)c4c(C)noc4C)cc3)c(O)c2n1 = -8
• Cc1ccc2c(Cl)cc(S(=O)(=O)NCCc3ccc(NS(=O)(=O)c4ccccc4)cc3)c(O)c2n1 = 89
• Cc1ccc2c(Cl)cc(S(=O)(=O)NCCc3ccc(Cl)cc3)c(O)c2n1 = 70
• Cc1ccc2c(Cl)cc(S(=O)(=O)NCCCCc3ccccc3)c(O)c2n1 = 51
• Cc1ccc2c(Cl)cc(S(=O)(=O)NCCc3ccccn3)c(O)c2n1 = 42

====

target: HCMV polymerase (Human cytomegalovirus); construct: made in house; host or cells: recombinant baculovirus-infected SF-9 cells; assay: HCMV polymerase assay (scintillation proximity assay); format: biochemical; settings: Table 5; pol type CMV; read-out: IC50
measurement_type: IC50

* O=C(NCc1ccc(Cl)cc1)c1ccc2ccc[n+]([O-])c2c1O | 49.7 µM
* O=C(NCc1ccc(Cl)cc1)c1ccc2ccc(/C=C/c3ccco3)nc2c1O | 8 µM
* O=C(NCc1ccc(Cl)cc1)c1ccc2c(O)cc(C(F)(F)F)nc2c1O | 23.3 µM

====

biological target: CMV polymerase (Human cytomegalovirus); construct: made in house; host or cells: recombinant baculovirus-infected SF-9 cells; assay: modified version of the HCMV polymerase assay (100% DMSO dilution, DTT, different enzyme lot); format: biochemical; conditions: Table 3; read-out: IC50
pIC50: −log10 of the molar value.
measurement_type: pIC50

* Cc1ccc2c(Cl)cc(S(=O)(=O)NCCCc3ccccc3)c(O)c2n1 [Example 34] | 4.76
* Cc1ccc2c(Cl)cc(S(=O)(=O)NCCCn3ccnc3)c(O)c2n1 [Example 37] | 4.14
* Cc1ccc2c(Cl)cc(S(=O)(=O)N[C@@H](C)c3ccccc3)c(O)c2n1 [Example 40] | 4.86
* Cc1ccc2c(Cl)cc(S(=O)(=O)NCCOc3ccccc3)c(O)c2n1 [Example 35] | 5.00
* Cc1ccc2c(Cl)cc(S(=O)(=O)NC(c3ccccc3)c3ccccc3)c(O)c2n1 [Example 38] | 4.98
* Cc1ccc2c(Cl)cc(S(=O)(=O)N[C@H](C)c3ccccc3)c(O)c2n1 [Example 39] | 4.67

====

measurement_type: melting point

* Cc1ccc2c(Cl)cc(S(=O)(=O)NC(c3ccccc3)c3ccccc3)c(O)c2n1 | 115 to 119 °C
* O=C(Nc1ccc(Cl)cc1)c1cc(Cl)c2cccnc2c1O | 214 to 216 °C
* O=C(NCc1ccc([N+](=O)[O-])cc1)c1ccc2cccnc2c1O | 210 to 212 °C
* Cc1ccc(NC(=O)c2ccc3cccnc3c2O)c(C)c1 | 164 to 167 °C
* CC(C)(C)c1ccc2c(Cl)cc(S(=O)(=O)NCc3ccc(Cl)cc3)c(O)c2n1 | 162 to 163 °C (dec.)
* O=C(Nc1ccc(Cl)cc1)c1ccc2cccnc2c1O | 207 to 209 °C
* O=C(NCc1ccc(Cl)cc1)c1cc(F)c2cccnc2c1O | 184 to 185 °C
* Cc1ccc2c(Cl)cc(S(=O)(=O)NCCCn3ccnc3)c(O)c2n1 | 194 to 196 °C
* Cc1ccc2c(Cl)cc(S(=O)(=O)NCCCc3ccccc3)c(O)c2n1 | 131 to 134 °C

====

biological target: CMV polymerase (Human cytomegalovirus, UniProt P08546); construct: made in house; host or cells: recombinant baculovirus-infected SF-9 cells; assay: modified version of the HCMV polymerase assay (100% DMSO dilution, DTT, different enzyme lot); type: biochemical; details: Concentration 6.25 μM; Table 6
measurement_type: inhibition at 6.25 µM (%)

* Cc1ccc2c(Cl)cc(S(=O)(=O)NCCc3ccc(NS(=O)(=O)c4c(C)noc4C)cc3)c(O)c2n1 | -8
* O=S(=O)(NCCSc1ccccc1)c1cc(Cl)c2ccc(/C=C/c3ccccc3)nc2c1O | 34
* Cc1ccc2c(Cl)cc(S(=O)(=O)NCCc3ccc(Cl)cc3)c(O)c2n1 | 19
* Cc1ccc2c(Cl)cc(S(=O)(=O)NCCc3ccccn3)c(O)c2n1 | 3
* Cc1ccc2c(Cl)cc(S(=O)(=O)NCCc3ccc(NS(=O)(=O)c4ccccc4)cc3)c(O)c2n1 | 41
* Cc1ccc2c(Cl)cc(S(=O)(=O)NCc3ccccn3)c(O)c2n1 | -6
* Cc1ccc2c(Cl)cc(S(=O)(=O)NCCCCc3ccccc3)c(O)c2n1 | 15

====

Target: HCMV polymerase (Human cytomegalovirus, UniProt P08546)
Construct: made in house; host or cells: recombinant baculovirus-infected SF-9 cells
Assay: HCMV polymerase assay (scintillation proximity assay)
Assay type: biochemical
Conditions: Table 13; read-out: IC50
Experimental: The HCMV polymerase assay is performed using a scintillation proximity assay (SPA) as described in several references, such as N. D. Cook, et al., Pharmaceutical Manufacturing International, pages 49-53 (1992); K. Takeuchi, Laboratory Practice, September issue (1992); U.S. Pat. No. 4,568,649 (1986); which are incorporated by reference herein. Reactions are performed in 96-well plates. […] Plates are incubated 10 min. at 37° C., then equilibrated to room temperature, and counted on a Packard Topcount. […]
Lab note - cut at 8 µM for IC50: 1 (yes) if strictly below, 0 (no) if not.

* Cc1cc(O)c2ccc(C(=O)NCc3ccc(Cl)cc3)c(O)c2n1 | 0 (no)
* O=C(NCCSc1ccccc1)c1ccc2ccc(C(F)(F)F)nc2c1O | 0 (no)
* O=C(NCc1ccc(Cl)cc1)c1cc([N+](=O)[O-])c2cccnc2c1O | 1 (yes)
* O=C(NC1=NC(=O)C(c2cccc([N+](=O)[O-])c2)S1)c1ccc2cccnc2c1O (stereo not drawn) | 1 (yes)
* Cc1ccc2ccc(C(=O)Nc3ccc(Cl)cc3)c(O)c2n1 | 1 (yes)
* O=C(NC1=NC(=O)C(Cc2ccc(Cl)cc2)S1)c1ccc2cccnc2c1O (stereo not drawn) | 1 (yes)
